Listed next: entries and their corresponding Emax.
- target: UniProt:O14842
- protocolDetails: Agonist activity at human recombinant full length GPR40 overexpressed in human HEK293 cells assessed as increase in inositol phosphate accumulation in presence of terbium cryptate-labeled anti IP1/d2-labelled IP1 measured after 120 mins by HTRF assay relative to AMG837
- Format: functional, cell-based
- assayConditions: filed as agonist
Respond numerically; units are % and should not be typed.

Report Emax for CC#C[C@@H](CC(=O)O)c1ccc(OCc2ccc(CN3CCC4(CC3)CN(C)c3ccc(C(F)(F)F)cc34)cc2)cc1 please.
275

I have this molecule here, CC#C[C@@H](CC(=O)O)c1ccc(OCc2ccc(CN3CCC4(C=Cc5ccccc54)CC3)s2)cc1 , and I need its recorded Emax.
145

Give its Emax value. Item: CC#C[C@@H](CC(=O)O)c1ccc(OCc2ccc(CN3CCC4(C=Cc5ccccc54)CC3)cc2)cc1F
156

====

- protocolDetails: Half-life in dog at 3 mg/kg, po or 1 mg/kg, iv by LC/MS/MS analysis
- Assay type: ADME, organism-based, Canis lupus familiaris
- assayConditions: in vivo
measuredProperty: half-life (h)
Give the number; h is assumed, so skip it.

CC#C[C@@H](CC(=O)O)c1ccc(OCc2ccc(CN3CCCc4cccc(OC)c43)s2)cc1 :: 4.4

Field: next molecule
Entry CC#C[C@@H](CC(=O)O)c1ccc(OCc2ccc(CN3CCC4(CCc5ccccc54)CC3)s2)cc1 : reported half-life = ?
3.8

====

- protocolDetails: Cmax in type 2 diabetic mellitus human at 1080 mg, po administered as single dose
- Assay type: ADME, organism-based
- Design: route oral, dose 1080 mg
- assayConditions: in vivo
measuredProperty: Cmax (ng/mL)
Numeric only. Scale: ng/mL

Which measured Cmax value corresponds to CC#C[C@@H](CC(=O)O)c1ccc(OCc2ccc(CN3CCCc4cccc(OC)c43)s2)cc1 ?
7950

====

- protocolDetails: AUC in hyperglycemic Balb/c mouse plasma at […] measured upto 60 mins
- Type: ADME, organism-based
measuredProperty: AUC at 1 h (ng·h/mL)
Lab book: enter the figure in ng·h/mL, no units written.

What does the record list as AUC at 1 h for CC#C[C@@H](CC(=O)O)c1ccc(OCc2ccc(CN3CCC4(CC3)CN(C)c3ccccc34)cc2)cc1 ?
1030

====

Reported Vd by item:
- protocolDetails: Volume of distribution at steady state in mouse at 3 mg/kg, po or 1 mg/kg, iv by LC/MS/MS analysis
- Assay type: ADME, organism-based
- assayConditions: in vivo, read-out: Vdss
Write the answer as a number in L/kg, unit excluded.

CC#C[C@@H](CC(=O)O)c1ccc(OCc2ccc(CN3CCC4(CCc5ccccc54)CC3)s2)cc1 :: 1.6

Here is another compound to look at.
Entry under review: CC#C[C@@H](CC(=O)O)c1ccc(OCc2ccc(CN3CCCc4cccc(OC)c43)s2)cc1 . Reported Vd?
3.9

====

- protocolDetails: Aqueous solubility of the compound at pH 7.4
- Type: physicochemical
- assayConditions: buffer
measuredProperty: solubility (µM)
Form entry: value (µM) — number only.

CC#C[C@@H](CC(=O)O)c1ccc(OCc2ccc(CN3CCC4(CCc5ccccc54)CC3)s2)cc1 :: 89

--- query ---
Give the measured solubility of CC#C[C@@H](CC(=O)O)c1ccc(OCc2ccc(CN3CCC4(C=Cc5ccccc54)CC3)cc2)cc1 [LY2881835] .
61

====

- target: Free fatty acid receptor 1 (Homo sapiens, UniProt O14842)
- Sequence (O14842 whole entry): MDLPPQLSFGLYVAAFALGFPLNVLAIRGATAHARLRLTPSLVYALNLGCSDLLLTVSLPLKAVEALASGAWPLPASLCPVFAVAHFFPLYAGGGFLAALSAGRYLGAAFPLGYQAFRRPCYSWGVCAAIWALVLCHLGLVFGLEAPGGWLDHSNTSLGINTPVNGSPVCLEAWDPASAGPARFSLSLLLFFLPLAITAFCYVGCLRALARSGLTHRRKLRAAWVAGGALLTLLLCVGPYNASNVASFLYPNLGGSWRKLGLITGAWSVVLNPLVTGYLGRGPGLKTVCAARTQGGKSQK
- protocolDetails: Displacement of [3H]-TAK-875 from human recombinant full-length GPR40 expressed in human HEK293 cell membrane incubated for 2 hrs by solid scintillation counting method
pKi: −log10 of the molar value.
Kind request: treat 8 as inclusive, so pKi at 8 or higher is Met, anything lower is Not met.

CC#C[C@@H](CC(=O)O)c1ccc(OCc2cnc(CN3CCC4(C=Cc5ccccc54)CC3)s2)cc1 :: Not met
CC#C[C@@H](CC(=O)O)c1ccc(OCc2ccc(CN3CCC4(C=Cc5ccccc54)CC3)o2)cc1 :: Not met
CC#C[C@@H](CC(=O)O)c1ccc(OCc2ccc(CN3CCC4(C=Cc5ccccc54)CC3)c(C(F)(F)F)c2)cc1 :: Met
CC#C[C@@H](CC(=O)O)c1ccc(OCc2ccc(CN3CCC4(CC3)CN(C(C)C)c3ccccc34)cc2)cc1 :: Met

As a next step, examine the molecule that follows.
Reported pKi at or above 8? O=C(O)CCc1ccc(OCc2ccc(CN3CCC4(C=Cc5ccccc54)CC3)cc2)cc1Cl
Not met

====

- target: Peroxisome proliferator-activated receptor delta (Homo sapiens, UniProt Q03181)
- Sequence (Q03181 whole entry): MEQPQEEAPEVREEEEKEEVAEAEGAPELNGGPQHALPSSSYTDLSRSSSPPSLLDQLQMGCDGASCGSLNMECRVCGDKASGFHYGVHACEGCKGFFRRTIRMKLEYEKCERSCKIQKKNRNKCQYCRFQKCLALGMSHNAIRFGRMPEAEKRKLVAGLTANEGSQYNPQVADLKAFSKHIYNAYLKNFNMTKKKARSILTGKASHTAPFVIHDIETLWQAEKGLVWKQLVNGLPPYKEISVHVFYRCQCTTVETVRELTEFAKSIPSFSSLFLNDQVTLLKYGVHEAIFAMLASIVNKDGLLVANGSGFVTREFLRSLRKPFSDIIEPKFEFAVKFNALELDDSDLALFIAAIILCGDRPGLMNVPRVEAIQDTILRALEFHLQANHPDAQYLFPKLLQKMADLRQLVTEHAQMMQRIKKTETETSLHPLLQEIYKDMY
- protocolDetails: Agonist activity at human Gal4-fused PPARdelta LBD expressed in African green monkey CV1 cells cotransfected with pRL-SV40 plasmid measured after 24 hrs by luciferase reporter gene assay
pEC50: −log10 of the molar value.
measuredProperty: pEC50

CC#C[C@@H](CC(=O)O)c1ccc(OCc2ccc(CN3CCC4(CCc5ccccc54)CC3)s2)cc1 :: < 5.00
CC#C[C@@H](CC(=O)O)c1ccc(OCc2ccc(CN3CCC4(C=Cc5ccccc54)CC3)cc2)cc1 :: < 5.00

Pending compound:
Could you tell me which pEC50 is on file for CC#C[C@@H](CC(=O)O)c1ccc(OCc2ccc(CN3CCCc4cccc(OC)c43)s2)cc1 ?
< 5.00

====

- target: Free fatty acid receptor 1 (Rattus norvegicus)
- Sequence (Q8K3T4 whole entry, the tested form may be a part): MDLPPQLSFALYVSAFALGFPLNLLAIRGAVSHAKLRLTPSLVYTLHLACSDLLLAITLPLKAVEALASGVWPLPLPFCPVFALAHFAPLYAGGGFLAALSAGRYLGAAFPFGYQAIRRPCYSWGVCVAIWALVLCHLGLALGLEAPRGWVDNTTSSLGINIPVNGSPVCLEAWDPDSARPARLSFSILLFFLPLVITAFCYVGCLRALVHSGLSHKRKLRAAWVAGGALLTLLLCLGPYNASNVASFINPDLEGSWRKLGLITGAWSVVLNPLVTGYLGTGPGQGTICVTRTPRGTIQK
- protocolDetails: Agonist activity at Prolink-tagged rat GPR40 fused with EA-tagged beta-arrestin expressed in human U2OS cells assessed as induction of beta-arrestin recruitment measured after 90 mins by beta-galactosidase based PathHunter assay
pEC50: −log10 of the molar value.
Outcome label depends on pEC50 relative to 8: at/above gives rule met, below gives rule not met.

CC#C[C@@H](CC(=O)O)c1ccc(OCc2ccc(CN3CCC4(CC3)CN(C)c3c(Cl)cccc34)cc2)cc1 :: rule met
CC#C[C@@H](CC(=O)O)c1ccc(OCc2ncc(CN3CCC4(C=Cc5ccccc54)CC3)s2)cc1 :: rule not met
CC#C[C@@H](CC(=O)O)c1ccc(OCc2ccc(CN3CCC4(CC3)CN(C)c3ccc(C(F)(F)F)cc34)cc2)cc1 :: rule met
CC#C[C@@H](CC(=O)O)c1ccc(OCc2cccc(-c3ccc(C(F)(F)F)cc3)c2)cc1 :: rule met
CC#C[C@@H](CC(=O)O)c1ccc(OCc2cc(C)c(CN3CCC4(C=Cc5ccccc54)CC3)s2)cc1 :: rule met
CC#C[C@@H](CC(=O)O)c1ccc(OCc2ccc(CN3CCC4(C=Cc5ccccc54)CC3)s2)cc1 :: rule met
CC#C[C@@H](CC(=O)O)c1ccc(OCc2ccc(CN3CCC4(C=Cc5ccccc54)CC3)c(C)c2)cc1 :: rule met
CC#C[C@@H](CC(=O)O)c1ccc(OCc2ccc(CN3CCC4(CC3)CN(C(C)C)c3ccccc34)cc2)cc1 :: rule met
CC#C[C@@H](CC(=O)O)c1ccc(OCc2ccc(CN3CCC4(CC3)CN(C)c3ccccc34)cc2)cc1 :: rule met
CC#C[C@@H](CC(=O)O)c1ccc(OCc2sc(CN3CCC4(C=Cc5ccccc54)CC3)nc2C)cc1 :: rule not met

Kindly determine if pEC50 recorded for CC#C[C@@H](CC(=O)O)c1ccc(OCc2ccc(CN3CCCc4cccc(OC)c43)s2)cc1 is above or exactly 8.
rule met

Quick check: does CC#C[C@@H](CC(=O)O)c1ccc(OCc2ccc(CN3CCC4(CC3)CC(=O)c3ccccc3O4)cc2)cc1 have pEC50 greater than or equal to 8?
rule met

Say whether CC#C[C@@H](CC(=O)O)c1ccc(OCc2ccc(CN3CCC4(CCc5ccccc54)CC3)cc2)cc1 shows pEC50 of 8 or more.
rule met

Assess whether reported pEC50 for CC#C[C@@H](CC(=O)O)c1ccc(OCc2ccc(CN3CCC4(C=Cc5ccccc54)CC3)o2)cc1 sits at 8 or higher.
rule met

# bool: pEC50 of CC#C[C@H](CC(=O)O)c1ccc(OCc2ccc(CN3CCC4(C=Cc5ccccc54)CC3)cc2)cc1 >= 8
rule not met

Would you say CC#C[C@@H](CC(=O)O)c1ccc(OCc2ccc(CN3CCC4(C=Cc5ccccc54)CC3)c(OC)c2)cc1 shows pEC50 at minimum 8?
rule met
